Biological target: Voltage-dependent T-type calcium channel subunit alpha-1H (Homo sapiens, UniProt O95180);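 further: channel activity triggered by adding a high calcium stimulation buffer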
Sequence (O95180 whole entry): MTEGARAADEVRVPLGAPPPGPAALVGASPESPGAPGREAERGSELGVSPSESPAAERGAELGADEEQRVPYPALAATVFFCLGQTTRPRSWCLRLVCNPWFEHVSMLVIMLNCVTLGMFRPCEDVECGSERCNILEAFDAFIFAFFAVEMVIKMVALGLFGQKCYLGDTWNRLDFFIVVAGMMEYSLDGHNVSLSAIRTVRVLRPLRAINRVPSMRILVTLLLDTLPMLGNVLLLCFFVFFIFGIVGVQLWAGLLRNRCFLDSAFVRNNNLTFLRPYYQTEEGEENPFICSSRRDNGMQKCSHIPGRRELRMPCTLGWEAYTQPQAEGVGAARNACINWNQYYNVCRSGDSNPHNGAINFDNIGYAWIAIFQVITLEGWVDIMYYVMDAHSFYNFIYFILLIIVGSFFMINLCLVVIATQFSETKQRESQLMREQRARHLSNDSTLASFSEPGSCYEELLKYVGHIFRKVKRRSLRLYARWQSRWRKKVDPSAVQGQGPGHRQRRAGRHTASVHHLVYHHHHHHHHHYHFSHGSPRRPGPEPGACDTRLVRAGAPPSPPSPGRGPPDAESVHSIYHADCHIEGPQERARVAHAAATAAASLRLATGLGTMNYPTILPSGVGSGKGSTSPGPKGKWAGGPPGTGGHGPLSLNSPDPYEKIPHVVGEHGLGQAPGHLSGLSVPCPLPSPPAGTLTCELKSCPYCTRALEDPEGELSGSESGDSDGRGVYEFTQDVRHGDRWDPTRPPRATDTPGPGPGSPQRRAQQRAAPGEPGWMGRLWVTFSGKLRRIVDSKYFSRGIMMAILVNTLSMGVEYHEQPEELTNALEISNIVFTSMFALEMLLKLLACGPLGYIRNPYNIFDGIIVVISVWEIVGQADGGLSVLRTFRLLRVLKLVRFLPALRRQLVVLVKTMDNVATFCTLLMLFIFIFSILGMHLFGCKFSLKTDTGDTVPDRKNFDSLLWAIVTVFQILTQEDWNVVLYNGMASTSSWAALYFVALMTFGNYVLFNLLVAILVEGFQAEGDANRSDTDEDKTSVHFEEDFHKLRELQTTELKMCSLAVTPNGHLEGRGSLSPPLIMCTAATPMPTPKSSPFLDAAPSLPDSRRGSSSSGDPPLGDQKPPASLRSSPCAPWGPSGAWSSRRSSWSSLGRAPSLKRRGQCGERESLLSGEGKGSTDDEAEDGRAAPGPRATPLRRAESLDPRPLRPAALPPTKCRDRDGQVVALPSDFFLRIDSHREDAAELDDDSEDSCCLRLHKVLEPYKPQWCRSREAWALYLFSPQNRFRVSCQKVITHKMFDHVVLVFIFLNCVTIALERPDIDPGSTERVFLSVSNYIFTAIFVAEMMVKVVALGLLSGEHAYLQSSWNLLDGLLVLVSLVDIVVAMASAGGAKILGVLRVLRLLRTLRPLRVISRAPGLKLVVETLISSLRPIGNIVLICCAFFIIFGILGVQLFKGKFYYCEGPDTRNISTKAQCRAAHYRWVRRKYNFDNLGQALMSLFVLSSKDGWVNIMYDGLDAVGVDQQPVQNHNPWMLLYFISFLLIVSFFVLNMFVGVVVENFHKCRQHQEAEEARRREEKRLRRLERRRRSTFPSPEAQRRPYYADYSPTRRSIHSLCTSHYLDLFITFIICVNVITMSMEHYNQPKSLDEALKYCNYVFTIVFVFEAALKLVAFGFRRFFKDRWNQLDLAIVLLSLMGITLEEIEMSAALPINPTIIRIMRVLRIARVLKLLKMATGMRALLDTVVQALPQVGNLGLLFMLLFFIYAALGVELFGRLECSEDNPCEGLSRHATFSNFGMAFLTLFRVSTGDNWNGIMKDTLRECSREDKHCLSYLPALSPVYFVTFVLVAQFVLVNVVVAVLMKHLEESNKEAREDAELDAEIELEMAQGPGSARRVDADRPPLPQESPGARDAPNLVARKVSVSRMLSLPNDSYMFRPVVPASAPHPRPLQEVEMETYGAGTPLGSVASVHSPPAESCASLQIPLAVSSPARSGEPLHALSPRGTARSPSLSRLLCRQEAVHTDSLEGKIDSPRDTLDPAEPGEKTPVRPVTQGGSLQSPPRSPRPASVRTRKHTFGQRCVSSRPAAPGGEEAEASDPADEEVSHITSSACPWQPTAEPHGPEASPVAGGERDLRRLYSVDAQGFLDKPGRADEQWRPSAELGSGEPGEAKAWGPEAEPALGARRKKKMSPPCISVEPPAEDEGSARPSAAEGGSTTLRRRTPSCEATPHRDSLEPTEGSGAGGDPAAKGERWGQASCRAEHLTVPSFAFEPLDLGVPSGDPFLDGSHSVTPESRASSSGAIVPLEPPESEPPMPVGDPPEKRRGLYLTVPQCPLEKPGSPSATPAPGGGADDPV
Type: functional
Calls of active or inactive are those of the source.
measurement-kind: EC50

The reported Voltage-dependent T-type calcium channel subunit alpha-1H (Homo sapiens, UniProt O95180) EC50 of Clc1ccc(C(c2nnnn2CCc2ccccc2)N2CCSCC2)cc1 (centres undefined) is 8.87 µM (active)

Item `Clc1ccccc1-c1nnn(Cc2ccc(-c3nnn[nH]3)cc2)n1` ; assay system Voltage-dependent T-type calcium channel subunit alpha-1H (Homo sapiens, UniProt O95180); EC50 reported as 4.37 µM (active)

Item `Cc1ccc(-c2noc(CN(C(=O)CCCCCN3C(=O)c4ccccc4C3=O)C(C)C)n2)cc1` ; assay system Voltage-dependent T-type calcium channel subunit alpha-1H (Homo sapiens, UniProt O95180); EC50 reported as 7.53 µM (active)

Result for `COc1ccc(-c2nnc(NC(=O)c3cc(Cl)ccc3Cl)o2)cc1` , tested on Voltage-dependent T-type calcium channel subunit alpha-1H (Homo sapiens, UniProt O95180), EC50: 10.8 µM (active)

Form field, EC50 with Voltage-dependent T-type calcium channel subunit alpha-1H (Homo sapiens, UniProt O95180), item [O-][S+](Cc1cc(Oc2ccccc2)nc(-c2ccccc2)n1)c1ccccc1 (centres undefined) : 7.24 µM (active)

Measured EC50 for this entry `Cn1cccc1Cc1nnc(SCC(=O)Nc2cccc(F)c2)n1-c1ccc(F)cc1` on Voltage-dependent T-type calcium channel subunit alpha-1H (Homo sapiens, UniProt O95180): 3.35 µM (active)

Result for CC1CN(C(=O)N2c3ccccc3Sc3ccccc32)C(C)CC1=O (centres undefined) , tested on Voltage-dependent T-type calcium channel subunit alpha-1H (Homo sapiens, UniProt O95180), EC50: 8.31 µM (active)

Entry `CCS(=O)(=O)n1nc(NCc2cccc(OC)c2)nc1NCc1cccc(OC)c1` under Voltage-dependent T-type calcium channel subunit alpha-1H (Homo sapiens, UniProt O95180) had EC50 of 8.18 µM (active)

Reading of EC50 for `Cn1cccc1Cc1nnc(SCC(=O)Nc2ccc(F)cc2)n1-c1ccc(F)cc1` with Voltage-dependent T-type calcium channel subunit alpha-1H (Homo sapiens, UniProt O95180): 2.17 µM (active)

###

Biological target: Microphthalmia-associated transcription factor (Homo sapiens, UniProt O75030)
Sequence (O75030 whole entry): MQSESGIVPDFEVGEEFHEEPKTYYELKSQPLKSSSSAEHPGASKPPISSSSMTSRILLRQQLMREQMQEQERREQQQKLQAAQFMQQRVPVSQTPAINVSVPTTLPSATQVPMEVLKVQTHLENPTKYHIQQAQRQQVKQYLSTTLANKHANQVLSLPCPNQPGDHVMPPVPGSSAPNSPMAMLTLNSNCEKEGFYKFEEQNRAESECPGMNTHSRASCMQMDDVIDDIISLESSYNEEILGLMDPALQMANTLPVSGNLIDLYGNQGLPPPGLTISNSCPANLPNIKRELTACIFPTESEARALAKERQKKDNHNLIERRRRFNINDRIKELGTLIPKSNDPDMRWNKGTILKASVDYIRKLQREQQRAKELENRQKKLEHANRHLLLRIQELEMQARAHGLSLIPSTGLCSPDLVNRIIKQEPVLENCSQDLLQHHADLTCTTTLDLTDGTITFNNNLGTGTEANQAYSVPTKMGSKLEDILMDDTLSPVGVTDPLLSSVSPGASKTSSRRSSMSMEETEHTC
Experiment: TRPM1 promoter luciferase signal decrease, dose response, MITF inhibitor project, cell-based, SK-MEL-5, cherry-picked, set 3 (AID 493073);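 further: SK-MEL-5 melanoma cells with luciferase driven by the MITF target TRPM1 promoter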
Type: functional
Active and inactive are the calls of the source. How the calls were made is not given here.
Mark one answer only. Choices: YES (active), NO (inactive)

Q: GET /call?item= `O=[N+]([O-])c1cc(CN2CCN(c3ccccc3)CC2)c(O)c2ncccc12` returns the recorded outcome of this test.
Result: YES

Source listed as ChEMBL document CHEMBL1201862.
